test system: P388 leukemia ip, CD2F1 mice, survival T/C; assay: NCI In Vivo Anticancer Drug Screen. Data for tumor model P388 Leukemia (intraperitoneal) in CD2F1 (CDF1) mice; settings: endpoint: median survival time; dose: 60.0 mg/kg/injection; schedule: Q01DX005 (ip); vehicle: saline with Tween-80; higher = longer survival
Toxic doses and inconclusive results are not listed.

compound | T/C
C#CCSc1n[nH]c(=O)n1C1CCCCC1 | 99 % of control
CC1=CC(=O)CCC12CCOC2=O (stereo not given) | 104 % of control
Cc1ccc(C)c(NC(=O)CCC(=O)CC(=O)c2ccncc2)c1 | 107 % of control
O=C(NNC(=S)NC1OC(CO)C(O)C(O)C1O)c1cccc(C(=O)NNC(=S)NC2OC(CO)C(O)C(O)C2O)n1 (stereo not given) | 97 % of control
O=C(Nc1ccc(F)cc1)NN1CCOCC1 | 102 % of control
CCN(CC)CCOC(=O)Nc1cc(C)cc(C)c1 | 94 % of control
COC1=CC=C2Nc3nc(N)[nH]c(=O)c3SC2N1 (stereo not given) | 99 % of control
O=C(O)c1ccc(NC(=S)NC(=O)c2cccc(Br)c2)cc1 | 91 % of control
COc1ccc(/C=N\NC(=O)CNC(=O)Nc2cccc([N+](=O)[O-])c2)cc1O | 89 % of control
O=c1[nH]nc(NC2Nc3ccccc3N2)c2ccccc12 | 97 % of control
N#CC1[C@@H](C(=O)c2ccccc2)N2C=Cc3ccccc3[C@@H]2[C@H]1C#N (stereo not given in full) | 90 % of control
CSC(SC)(SC)c1cc(C)no1 | 111 % of control
CCCCCOCc1cc(C)no1 | 104 % of control
Cc1nc(C#N)c(=N)n(CCCO)c1-c1ccccc1 | 109 % of control
CCN(CC)C(=O)Oc1cc(C(=O)N(CC)CC)c(OC(=O)N(CC)CC)cc1C(=O)N(CC)CC | 101 % of control
Nc1ncnc2nc(-c3ccc(C[P+](c4ccccc4)(c4ccccc4)c4ccccc4)cc3)[nH]c12 | 95 % of control
CS1(C)=Nc2c([N+](=O)[O-])cc([N+](=O)[O-])cc2S(=O)(=O)N=1 | 98 % of control
O=[N+]([O-])c1ccc(-c2cn(-c3ccc(Cl)cc3)cn2)cc1 | 96 % of control
COC(=O)c1cc(C)c(C)cc1NC1OC(CO)C(O)C1O (stereo not given) | 101 % of control
Cc1ccc(C(N)=Nc2ccccc2)cc1 | 100 % of control
CCCCCCCC/C=C\CCCCCCCC(=O)OCC(COC(=O)CCCCCCC/C=C\CCCCCCCC)OC(=O)N(CCCl)CCCl | 115 % of control
CC(C(/C=N/NC(N)=S)=N/NC(N)=S)N1C(=O)c2ccccc2C1=O (stereo not given) | 97 % of control
O=C(Cc1ccc2c(c1)OCO2)c1ccc(O)cc1O | 99 % of control
O=C(c1ccc(Cl)cc1)N1CCN(C(=O)N2CCN(C(=O)N3CCN(C(=O)c4ccc(Cl)cc4)CC3)CC2)CC1 | 92 % of control
O=C(O)C(Cc1ccccc1)NC(c1ccccc1)P(=O)(O)O (stereo not given) | 101 % of control
CCc1c[nH]c(C=O)c1CC | 100 % of control
O=C(Nc1nn[nH]n1)c1nc(-c2ccccc2)cc(=O)[nH]1 | 101 % of control
O=C1CCCCC(=O)Nc2ccc3nc4ccccc4c(c3c2)SCCCCCCCCSc2c3ccccc3nc3ccc(cc23)N1 | 101 % of control
CCn1c2ccc(N)cc2c2c3ncc4cccn4c3ccc21 | 88 % of control
COC(=O)c1cc(-c2ccc(C)cc2)c2c(=O)n(-c3ccccc3)[nH]c2n1 | 100 % of control
Cc1cccc(C)c1Nc1nnc(-c2ccc(N(C)C)cc2)s1 | 86 % of control
COc1ccc(/C=N/N2CN(C(C)C(=O)O)B(NC34CC5CC(CC(C5)C3)C4)N=C2N)cc1OC (stereo not given) | 104 % of control
Cc1ccc(S(=O)(=O)N/N=C2\C(=N\NS(=O)(=O)c3ccc(C)cc3)C3c4ccccc4C2c2ccccc23)cc1 | 105 % of control
CN(C)c1ccc(C2N(C)CCN2C)cc1 | 93 % of control
CCCCOC(=O)C1C2CCC(O2)C1C(N)=O (stereo not given) | 99 % of control
CN(C)Cc1[nH]c2ccccc2c1Sc1ccccc1 | 100 % of control
CC1=C(Br)S(=O)(=O)N(c2ccccc2)C(CBr)=C1Br | 100 % of control
C=CCCN=C(SC)SC | 104 % of control
CCN(CC)c1ccc(N=Nc2nc(Cl)c(/C=C3\C(=O)c4ccccc4C3=C(C#N)C#N)s2)c(NC(C)=O)c1 | 96 % of control
CC(=O)Oc1cc2c(cc1OC(C)=O)OCC(c1ccccc1)C2 (stereo not given) | 98 % of control
O=C(NC1C=Nc2ccc(Cl)cc2NC1=O)c1ccccc1Cl (stereo not given) | 92 % of control
O=C(Oc1ccc2c(=O)cc(-c3ccccc3)oc2c1OC(=O)c1ccccc1)c1ccccc1 | 94 % of control
Nc1ccccc1-c1nnc(-c2ccccc2)o1 | 100 % of control
O=c1c2ccccc2c(Br)c(Br)c2ccccc12 | 106 % of control
CC(=O)OCCOCn1cc(C)[n+]([O-])nc1=O | 100 % of control
